# assayedTarget: TAS2R14 (Homo sapiens, UniProt Q9NYV8)
# Sequence (Q9NYV8 whole entry): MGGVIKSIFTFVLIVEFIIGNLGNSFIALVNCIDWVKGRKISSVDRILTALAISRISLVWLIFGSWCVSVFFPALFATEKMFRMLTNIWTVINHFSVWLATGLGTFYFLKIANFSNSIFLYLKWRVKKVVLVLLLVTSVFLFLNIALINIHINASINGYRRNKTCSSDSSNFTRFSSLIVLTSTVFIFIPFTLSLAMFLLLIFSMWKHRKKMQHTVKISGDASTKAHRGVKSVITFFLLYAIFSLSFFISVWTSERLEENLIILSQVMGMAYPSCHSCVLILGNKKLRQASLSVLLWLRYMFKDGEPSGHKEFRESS
# assayText: cell-based
# Parameters: species or system HEK293T
# experimentalSetup: HEK-293T, read-out: Emax[%flu acid]
assayMetric: Emax (%)
API: value field is a number in %; no unit string.

# value of Emax, TAS2R14 (Homo sapiens, UniProt Q9NYV8), item `Cc1cc(Nc2ccccc2-c2nnn[nH]2)cc(C(F)(F)F)c1` = 81

Case `FS(F)(F)(F)(F)c1cccc(Nc2ccccc2-c2nnn[nH]2)c1` , TAS2R14 (Homo sapiens, UniProt Q9NYV8), Emax recorded as 48

Record `O=Cc1ccc(Cl)cc1Nc1ccccc1C(=O)O` has TAS2R14 (Homo sapiens, UniProt Q9NYV8) Emax equal to 97

# value of Emax, TAS2R14 (Homo sapiens, UniProt Q9NYV8), item `Cc1ccc(Nc2ccccc2C(=O)O)cc1OCc1ccc(Cl)cc1` = 70

Short answer on TAS2R14 (Homo sapiens, UniProt Q9NYV8) for `Cc1cn(-c2cc(Nc3ccccc3C(=O)O)cc(C(F)(F)F)c2)cn1` , Emax: 51
